FYI, the data here is from ChEMBL document CHEMBL3425429.

Biological target: Tyrosine-protein kinase Yes (Homo sapiens)
Sequence (P07947 whole entry): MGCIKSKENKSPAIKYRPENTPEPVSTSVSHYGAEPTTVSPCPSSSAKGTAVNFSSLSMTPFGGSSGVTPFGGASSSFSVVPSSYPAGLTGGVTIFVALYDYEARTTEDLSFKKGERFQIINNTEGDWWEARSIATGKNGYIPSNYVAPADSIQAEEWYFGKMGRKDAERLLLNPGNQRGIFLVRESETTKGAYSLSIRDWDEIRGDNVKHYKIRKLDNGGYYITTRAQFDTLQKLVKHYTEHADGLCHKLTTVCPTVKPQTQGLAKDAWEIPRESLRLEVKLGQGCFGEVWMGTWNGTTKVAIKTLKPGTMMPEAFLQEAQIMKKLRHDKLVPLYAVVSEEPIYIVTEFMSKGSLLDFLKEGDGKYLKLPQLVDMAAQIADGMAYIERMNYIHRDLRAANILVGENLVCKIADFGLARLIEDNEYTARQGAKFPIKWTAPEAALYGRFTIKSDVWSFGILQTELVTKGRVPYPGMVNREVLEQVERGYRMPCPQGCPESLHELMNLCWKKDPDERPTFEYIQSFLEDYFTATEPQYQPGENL
OUTCOME_MEASURE: IC50 (nM)
Give your result in nM as a bare value.

Any idea what IC50 came out for CCn1nc(C#Cc2cc(C(=O)Nc3ccc(CN4CCN(C)CC4)c(C(F)(F)F)c3)ccc2C)c2c(N)ncnc21 on Tyrosine-protein kinase Yes (Homo sapiens)?
0.8

###

Molecular target: Mitogen-activated protein kinase 1 (Homo sapiens)
Sequence (P28482 whole entry): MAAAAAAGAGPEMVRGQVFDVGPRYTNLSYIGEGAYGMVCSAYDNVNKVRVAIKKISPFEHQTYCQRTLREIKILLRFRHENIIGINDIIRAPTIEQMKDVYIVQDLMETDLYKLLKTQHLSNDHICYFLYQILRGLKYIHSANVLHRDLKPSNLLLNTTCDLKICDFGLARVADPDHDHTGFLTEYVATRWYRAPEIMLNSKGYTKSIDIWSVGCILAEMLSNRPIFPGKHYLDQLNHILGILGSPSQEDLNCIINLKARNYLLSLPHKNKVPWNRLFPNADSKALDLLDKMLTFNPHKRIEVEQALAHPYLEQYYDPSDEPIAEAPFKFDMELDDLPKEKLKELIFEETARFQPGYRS
Test: Inhibition of human MAPK1
pIC50: −log10 of the molar value.
OUTCOME_MEASURE: pIC50

Could you tell me which pIC50 is on file for CCn1nc(C#Cc2cc(C(=O)Nc3ccc(CN4CCN(C)CC4)c(C(F)(F)F)c3)ccc2C)c2c(N)ncnc21 ?
< 5.00

###

Biological target: Phosphatidylinositol 4,5-bisphosphate 3-kinase catalytic subunit alpha isoform (Homo sapiens, UniProt P42336)
Sequence (P42336 whole entry, canonical isoform): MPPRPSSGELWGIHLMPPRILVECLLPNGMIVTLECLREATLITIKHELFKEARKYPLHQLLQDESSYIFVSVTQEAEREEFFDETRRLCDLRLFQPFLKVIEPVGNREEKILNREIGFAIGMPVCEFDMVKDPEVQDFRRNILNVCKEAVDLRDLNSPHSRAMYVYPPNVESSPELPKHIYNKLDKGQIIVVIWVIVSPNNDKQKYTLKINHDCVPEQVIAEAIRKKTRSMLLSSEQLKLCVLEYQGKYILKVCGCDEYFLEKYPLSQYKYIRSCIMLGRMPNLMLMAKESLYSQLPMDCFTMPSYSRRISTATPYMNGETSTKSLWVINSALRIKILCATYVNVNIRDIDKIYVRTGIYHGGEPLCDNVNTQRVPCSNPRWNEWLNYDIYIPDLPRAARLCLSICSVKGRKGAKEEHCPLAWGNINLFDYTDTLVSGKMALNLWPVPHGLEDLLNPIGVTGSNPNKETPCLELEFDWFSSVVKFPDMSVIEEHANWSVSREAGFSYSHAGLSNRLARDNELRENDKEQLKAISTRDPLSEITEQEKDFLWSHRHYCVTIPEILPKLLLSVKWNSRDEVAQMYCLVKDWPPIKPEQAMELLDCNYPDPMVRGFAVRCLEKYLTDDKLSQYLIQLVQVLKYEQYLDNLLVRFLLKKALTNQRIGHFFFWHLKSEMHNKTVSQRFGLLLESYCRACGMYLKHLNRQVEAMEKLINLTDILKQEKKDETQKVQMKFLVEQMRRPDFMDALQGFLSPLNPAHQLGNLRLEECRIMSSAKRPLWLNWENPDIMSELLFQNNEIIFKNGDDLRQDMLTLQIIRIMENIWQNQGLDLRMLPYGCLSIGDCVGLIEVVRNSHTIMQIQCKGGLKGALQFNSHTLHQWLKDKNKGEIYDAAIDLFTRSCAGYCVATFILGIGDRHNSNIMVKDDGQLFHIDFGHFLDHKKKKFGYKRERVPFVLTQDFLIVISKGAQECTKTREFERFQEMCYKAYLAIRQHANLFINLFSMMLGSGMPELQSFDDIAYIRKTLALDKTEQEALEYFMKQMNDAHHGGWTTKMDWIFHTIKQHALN
Test: Inhibition of human PI3Kalpha
pIC50: −log10 of the molar value.
OUTCOME_MEASURE: pIC50

Could you tell me which pIC50 is on file for CCn1nc(C#Cc2cc(C(=O)Nc3ccc(CN4CCN(C)CC4)c(C(F)(F)F)c3)ccc2C)c2c(N)ncnc21 ?
< 5.00

###

Test: Terminal half life in Sprague-Dawley rat at 10 mg/kg, po by LC/MS analysis
Assay type: ADME, organism-based
Design: dose 10 mg/kg, route oral
Conditions: in vivo, read-out: beta t1/2 (converted)
OUTCOME_MEASURE: half-life (h)
Give your result in h as a bare value.

Could you tell me which half-life is on file for CCn1nc(C#Cc2cc(C(=O)Nc3ccc(CN4CCN(C)CC4)c(C(F)(F)F)c3)ccc2C)c2c(N)ncnc21 ?
12.8

###

Test system: MDA-MB-435
Test: Cytotoxicity against human MDA-MB-435 cells assessed as cell viability after 72 hrs by MTT assay
Assay type: functional, cell-based
Settings: MDA-MB-435, 72 h
OUTCOME_MEASURE: IC50 (nM)
Give your result in nM as a bare value.

Any idea what IC50 came out for CCn1nc(C#Cc2cc(C(=O)Nc3ccc(CN4CCN(C)CC4)c(C(F)(F)F)c3)ccc2C)c2c(N)ncnc21 on MDA-MB-435?
5

###

Target: Aurora kinase A (Homo sapiens)
Sequence (O14965 whole entry): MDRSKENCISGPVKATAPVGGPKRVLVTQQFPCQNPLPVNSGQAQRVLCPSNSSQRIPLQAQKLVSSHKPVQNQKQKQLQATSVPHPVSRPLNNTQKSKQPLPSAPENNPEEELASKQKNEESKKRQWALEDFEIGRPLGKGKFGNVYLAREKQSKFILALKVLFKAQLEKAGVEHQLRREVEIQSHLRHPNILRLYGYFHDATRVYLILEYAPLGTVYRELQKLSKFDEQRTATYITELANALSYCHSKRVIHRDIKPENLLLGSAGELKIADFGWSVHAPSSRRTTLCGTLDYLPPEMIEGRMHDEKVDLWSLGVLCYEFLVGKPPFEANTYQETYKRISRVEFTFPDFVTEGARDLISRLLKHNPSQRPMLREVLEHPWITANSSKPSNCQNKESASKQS
OUTCOME_MEASURE: IC50

Could you tell me which IC50 is on file for CCn1nc(C#Cc2cc(C(=O)Nc3ccc(CN4CCN(C)CC4)c(C(F)(F)F)c3)ccc2C)c2c(N)ncnc21 ?
> 10 µM

###

Biological target: Serine/threonine-protein kinase Chk1 (Homo sapiens)
Sequence (O14757 whole entry): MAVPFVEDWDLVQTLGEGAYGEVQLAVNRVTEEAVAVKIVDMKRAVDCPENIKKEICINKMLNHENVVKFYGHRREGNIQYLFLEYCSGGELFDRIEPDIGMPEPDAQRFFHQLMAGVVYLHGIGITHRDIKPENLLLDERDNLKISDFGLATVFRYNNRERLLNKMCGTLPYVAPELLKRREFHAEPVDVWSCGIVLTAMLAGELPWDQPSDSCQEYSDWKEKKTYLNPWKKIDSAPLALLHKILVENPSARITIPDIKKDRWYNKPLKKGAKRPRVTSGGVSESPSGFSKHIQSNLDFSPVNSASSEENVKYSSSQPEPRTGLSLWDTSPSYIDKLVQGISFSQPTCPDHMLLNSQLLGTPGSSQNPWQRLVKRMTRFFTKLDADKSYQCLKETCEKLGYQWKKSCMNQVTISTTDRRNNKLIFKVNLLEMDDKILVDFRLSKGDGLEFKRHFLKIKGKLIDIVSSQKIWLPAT
OUTCOME_MEASURE: IC50

Could you tell me which IC50 is on file for CCn1nc(C#Cc2cc(C(=O)Nc3ccc(CN4CCN(C)CC4)c(C(F)(F)F)c3)ccc2C)c2c(N)ncnc21 ?
> 10 µM
